Target: human TLR2 (Pam3CSK4, TLR1/2 agonist) in HEK-Blue hTLR2 cells (Homo sapiens, UniProt O60603)
Construct: host or cells: HEK-Blue hTLR2 (HEK-293)
Sequence (O60603 19-784 limits assumed): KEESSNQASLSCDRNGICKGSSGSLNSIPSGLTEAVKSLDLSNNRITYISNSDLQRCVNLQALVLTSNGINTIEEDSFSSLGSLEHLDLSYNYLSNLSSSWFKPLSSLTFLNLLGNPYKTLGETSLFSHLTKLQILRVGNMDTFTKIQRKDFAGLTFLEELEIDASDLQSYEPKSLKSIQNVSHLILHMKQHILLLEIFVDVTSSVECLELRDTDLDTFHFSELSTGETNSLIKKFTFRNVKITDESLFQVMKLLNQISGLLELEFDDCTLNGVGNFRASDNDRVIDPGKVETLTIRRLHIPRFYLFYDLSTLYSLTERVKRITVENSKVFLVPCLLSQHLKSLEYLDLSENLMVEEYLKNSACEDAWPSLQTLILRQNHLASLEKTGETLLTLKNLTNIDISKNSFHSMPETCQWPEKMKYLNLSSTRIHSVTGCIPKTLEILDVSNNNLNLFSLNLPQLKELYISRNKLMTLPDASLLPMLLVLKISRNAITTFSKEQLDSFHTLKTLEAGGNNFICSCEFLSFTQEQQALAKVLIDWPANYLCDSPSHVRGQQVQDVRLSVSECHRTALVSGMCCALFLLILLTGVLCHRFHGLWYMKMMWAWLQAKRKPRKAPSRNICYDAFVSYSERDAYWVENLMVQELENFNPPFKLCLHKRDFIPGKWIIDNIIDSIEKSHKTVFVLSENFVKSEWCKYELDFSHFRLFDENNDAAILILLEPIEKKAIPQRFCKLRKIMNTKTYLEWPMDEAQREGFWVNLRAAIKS
Assay: HEK-Blue hTLR2 antagonism assay (SEAP reporter) with Pam3CSK4 as agonist
Assay type: cell-based
Settings: 2 h compound pre-incubation, approx. 3×EC50 Pam3CSK4, 18 h, SEAP OD 655 nm, background subtracted
measured-quantity: IC50

The following compounds have reported results that may help.
smiles-code	result
COc1ccc(/C=C/c2cc(OC)c(O)c(C(C)=O)c2)cc1	> 100 µM
O=Cc1cc(/C=C/c2cccc(C(F)(F)F)c2)cc(F)c1O	1 µM
CCN(CC)c1ccc(/C=C/c2cc(F)c(O)c(C=O)c2)cc1	0.5 µM
O=Cc1cc(/C=C/c2ccc(-c3ccccc3)cc2)cc(F)c1O	0.3 µM
COc1cc(/C=C/c2ccc3c(c2)CCCN3C(=O)OC(C)(C)C)cc(C=O)c1O	0.9 µM
O=Cc1cc(/C=C/c2ccc(N3CCOCC3)cc2)cc(F)c1O	4.5 µM
O=Cc1cc(/C=C\c2ccc(N3CCOCC3)cc2)cc(F)c1O	40.7 µM
O=Cc1cc(/C=C/c2ccccn2)cc(F)c1O	29.4 µM
CCN(CC)c1ccc(/C=C/c2cc(C=O)c(O)c(OC)c2)cc1	0.6 µM

Now take the following compound into account.
Incoming: Look up IC50 for this compound: COc1cc(/C=C/c2ccc(N3CCCC3)cc2)cc(O)c1C=O
Outgoing: > 100 µM
